Biological target: T1, rat PRLR ECD-Fc fusion protein (rat, UniProt P05710 20-229)
T1 construct: extracellular domain; not shown: Fc region (captured by goat anti-human Fc)
T1 sequence (looked up): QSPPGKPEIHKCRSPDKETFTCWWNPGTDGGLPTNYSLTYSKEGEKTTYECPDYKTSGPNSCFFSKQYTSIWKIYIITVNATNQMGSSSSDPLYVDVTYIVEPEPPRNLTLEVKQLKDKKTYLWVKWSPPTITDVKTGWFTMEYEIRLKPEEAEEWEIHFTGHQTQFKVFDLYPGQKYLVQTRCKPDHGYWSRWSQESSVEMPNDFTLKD
Test: ELISA on ECD
measured.property: EC50 (nM)
Respond with the bare value in nM.

Take a look at these entries with their results.
- binder: "Ab30 (antibody, human IgG1, kappa, V domains shown, humanized from Ab5; G1; also called Ab2 HC.1a and Ab2 LC.1a) VH: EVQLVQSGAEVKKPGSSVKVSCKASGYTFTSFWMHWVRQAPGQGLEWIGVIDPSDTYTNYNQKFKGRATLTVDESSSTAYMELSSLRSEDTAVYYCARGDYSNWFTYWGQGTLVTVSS VL: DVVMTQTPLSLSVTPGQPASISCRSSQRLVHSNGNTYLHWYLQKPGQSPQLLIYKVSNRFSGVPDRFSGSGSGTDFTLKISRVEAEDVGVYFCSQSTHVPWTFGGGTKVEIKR"
  EC50 / nM: 0.423
- binder: "LFA102 (antibody, human IgG1, kappa, V domains shown, humanized IgG1 kappa comparator (WO 2008022295)) VH: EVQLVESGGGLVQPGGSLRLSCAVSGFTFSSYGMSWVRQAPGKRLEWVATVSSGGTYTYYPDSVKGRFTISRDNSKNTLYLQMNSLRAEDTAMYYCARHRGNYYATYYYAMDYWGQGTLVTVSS VL: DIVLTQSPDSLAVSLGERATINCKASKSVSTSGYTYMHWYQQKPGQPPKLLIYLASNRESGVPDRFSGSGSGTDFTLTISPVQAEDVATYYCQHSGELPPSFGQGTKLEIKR"
  EC50 / nM: 0.157
- binder: "chAb5 (antibody, human IgG1, kappa, V domains shown, chimeric, murine variable and human G1/kappa constant regions) VH: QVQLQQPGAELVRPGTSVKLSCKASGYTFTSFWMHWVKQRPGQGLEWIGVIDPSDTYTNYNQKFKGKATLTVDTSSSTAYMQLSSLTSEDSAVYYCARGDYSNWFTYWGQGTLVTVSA VL: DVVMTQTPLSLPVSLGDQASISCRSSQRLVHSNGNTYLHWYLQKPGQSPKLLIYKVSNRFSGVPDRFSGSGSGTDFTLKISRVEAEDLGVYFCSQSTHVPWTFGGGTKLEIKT"
  EC50 / nM: 0.147

# context switch: different binder, same EC50
Fill in: EC50 of Ab5 (antibody, V domains shown, murine monoclonal, isotype G2a; also called murine Ab5) VH: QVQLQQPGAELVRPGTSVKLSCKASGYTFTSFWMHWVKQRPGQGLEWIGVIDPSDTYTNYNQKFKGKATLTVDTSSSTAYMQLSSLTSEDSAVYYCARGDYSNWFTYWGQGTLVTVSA VL: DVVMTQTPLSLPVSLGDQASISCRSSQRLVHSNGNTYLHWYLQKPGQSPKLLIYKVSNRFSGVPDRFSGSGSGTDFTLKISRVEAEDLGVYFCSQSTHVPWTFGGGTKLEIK is ___ 0.08
